Origin of the recorded values: the supplement of paper PMC9112550

- System: Escherichia coli TOP10
- Assay remarks: shrunken log2 fold change of peptide-encoding DNA abundance (4.5 h post-induction vs induction); higher = less antimicrobial activity (less host growth inhibition)
- Test parameters: time post-induction: 4.5 h; library: site-saturation at positions 5, 18, 19, 20
Measurement name: shrunken log2 fold change
Please respond with just the number, no unit label.

query: I'd like to know its shrunken log2 fold change. The sequence in question is `RRIRIRPPRLPRPRPRPKMTPRP`
result: 0.123

query: Proceed to `RRIRDRPPRLPRPRPRPQWFPRP`
result: 0.0117

query: Ok, now `RRIRWRPPRLPRPRPRPIYTPRP`
result: -0.412

query: Would you mind doing `RRIRMRPPRLPRPRPRPLEEPRP` as well?
result: 3.36

query: Continue with `RRIRYRPPRLPRPRPRPKEFPRP`
result: -0.00973

query: Note, next up: `RRIRFRPPRLPRPRPRPLIHPRP`
result: -0.891

query: Also, `RRIRMRPPRLPRPRPRPGTAPRP` please.
result: 0.793

query: // query: `RRIRWRPPRLPRPRPRPIAWPRP`
result: 0.713

query: Now consider `RRIRLRPPRLPRPRPRPGSIPRP` and answer again.
result: -0.301

query: Ok, now `RRIRERPPRLPRPRPRPNVQPRP`
result: -0.403

query: What do we get for `RRIRCRPPRLPRPRPRPPALPRP` ?
result: 0.415

query: `RRIRGRPPRLPRPRPRPNNTPRP` ?
result: -0.0658

query: Please answer likewise for `RRIRGRPPRLPRPRPRPKFTPRP`
result: 0.12

query: Likewise for `RRIRWRPPRLPRPRPRPLHKPRP` ?
result: 0.0164

query: Then what about the sequence `RRIRIRPPRLPRPRPRPNQFPRP` ?
result: -0.0326

query: Same question, `RRIRDRPPRLPRPRPRPTSGPRP` this time
result: 0.151

query: Try this sequence next: `RRIRRRPPRLPRPRPRPFQQPRP`
result: 0.282

query: Now try `RRIRKRPPRLPRPRPRPRSEPRP` .
result: -0.00081

query: Same lookup for `RRIRQRPPRLPRPRPRPLKWPRP` , please.
result: 0.0646

query: // next record `RRIRRRPPRLPRPRPRPFEQPRP`
result: 0.105

query: Now consider `RRIRIRPPRLPRPRPRPDWSPRP` and answer again.
result: -0.161

query: Same question for `RRIRQRPPRLPRPRPRPMIWPRP` please.
result: -0.79

###

- Test system: Escherichia coli TOP10
- Assay remarks: shrunken log2 fold change of peptide-encoding DNA abundance (4.5 h post-induction vs induction); higher = less antimicrobial activity (less host growth inhibition)
- Test parameters: time post-induction: 4.5 h; library: site-saturation at positions 5, 18, 19, 20
Entry flag: fulfilled if shrunken log2 fold change reaches 0.6; not fulfilled if it does not.

query: Could you verify whether the entry `RRIRTRPPRLPRPRPRPGATPRP` shows shrunken log2 fold change of no less than 0.6?
result: not fulfilled

query: Param item: `RRIRARPPRLPRPRPRPVRFPRP`
result: fulfilled

query: Please answer likewise for `RRIRGRPPRLPRPRPRPPTNPRP`
result: fulfilled

query: Entry `RRIRCRPPRLPRPRPRPRHYPRP` please
result: not fulfilled

query: // same read-out, input: `RRIRTRPPRLPRPRPRPMATPRP`
result: not fulfilled

query: Queued: `RRIRMRPPRLPRPRPRPHSTPRP`
result: not fulfilled

query: Another sequence to look at: `RRIRTRPPRLPRPRPRPYIFPRP`
result: not fulfilled

###

Answer each item with its documented shrunken log2 fold change.
- System: Escherichia coli TOP10
- Assay remarks: shrunken log2 fold change of peptide-encoding DNA abundance (4.5 h post-induction vs induction); higher = less antimicrobial activity (less host growth inhibition)
- Test parameters: time post-induction: 4.5 h; library: site-saturation at positions 5, 18, 19, 20
Could you keep your reply to the number by itself?

query: Bench note: what shrunken log2 fold change did `RRIRDRPPRLPRPRPRPIKYPRP` show?
result: -0.206

query: Would you kindly repeat that for `RRIRRRPPRLPRPRPRPFNTPRP` ?
result: -0.119

query: Another: `RRIRYRPPRLPRPRPRPVTKPRP`
result: -0.543

query: Field entry: `RRIRYRPPRLPRPRPRPVEMPRP`
result: -1.52

query: Ok, now `RRIRDRPPRLPRPRPRPVPYPRP`
result: -0.244

query: Now the sequence `RRIRYRPPRLPRPRPRPTGGPRP`
result: -0.0407

###

- Tested on: Escherichia coli TOP10;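 further: peptides expressed intracellularly from a pBAD plasmid library in pooled LB shake-flask culture, induced with 0.3% L-arabinose, DNA abundance read by NGS, three biological replicates, DESeq2 with apeglm shrinkage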
- Assay remarks: shrunken log2 fold change of peptide-encoding DNA abundance (4.5 h post-induction vs induction); higher = less antimicrobial activity (less host growth inhibition)
- Test parameters: time post-induction: 4.5 h; library: site-saturation at positions 5, 18, 19, 20
Tick true (1) if shrunken log2 fold change is 0.02 or greater. Tick false (0) if shrunken log2 fold change is less than 0.02.

query: Say whether `RRIRDRPPRLPRPRPRPIHLPRP` shows shrunken log2 fold change of 0.02 or more.
result: false (0)

query: And `RRIRLRPPRLPRPRPRPFVDPRP` ?
result: false (0)

query: How about this sequence: `RRIRFRPPRLPRPRPRPEQIPRP`
result: true (1)

query: Also need `RRIRGRPPRLPRPRPRPVCKPRP` , thanks.
result: true (1)

query: Subsequent entry: `RRIRSRPPRLPRPRPRPTWMPRP`
result: true (1)

query: Another sequence: `RRIRSRPPRLPRPRPRPNKAPRP`
result: false (0)

query: What about this sequence? `RRIRPRPPRLPRPRPRPLNYPRP`
result: false (0)

query: Cool, now `RRIRSRPPRLPRPRPRPLQEPRP`
result: true (1)

query: For `RRIRRRPPRLPRPRPRPRWRPRP` then?
result: true (1)

query: And what about the sequence `RRIRHRPPRLPRPRPRPWDAPRP` ?
result: false (0)

query: Follow-up item: `RRIRNRPPRLPRPRPRPMRGPRP`
result: true (1)

query: Next sequence up: `RRIRKRPPRLPRPRPRPTSIPRP`
result: true (1)

query: Now the same for `RRIRKRPPRLPRPRPRPGTPPRP`
result: true (1)

query: `RRIRLRPPRLPRPRPRPSCDPRP` ?
result: false (0)

query: Next: `RRIRHRPPRLPRPRPRPCRIPRP`
result: false (0)

query: Continue with `RRIRKRPPRLPRPRPRPTCSPRP`
result: true (1)

query: Now give it for `RRIRSRPPRLPRPRPRPPQSPRP` too.
result: true (1)

query: Now consider `RRIRFRPPRLPRPRPRPEIRPRP` .
result: false (0)

query: Further, for `RRIRPRPPRLPRPRPRPILIPRP` ?
result: false (0)

query: Also check `RRIRQRPPRLPRPRPRPTNSPRP`
result: false (0)

query: Repeat with `RRIRGRPPRLPRPRPRPCPPPRP`
result: true (1)

query: Check `RRIRVRPPRLPRPRPRPRLGPRP` too.
result: true (1)

query: Another: `RRIRPRPPRLPRPRPRPMICPRP`
result: false (0)

query: `RRIRIRPPRLPRPRPRPWGPPRP` , same question.
result: true (1)

query: And then `RRIRDRPPRLPRPRPRPQGPPRP` , what is it?
result: true (1)

query: Then `RRIRWRPPRLPRPRPRPWRSPRP` ?
result: true (1)

query: What do you have for `RRIRGRPPRLPRPRPRPTKRPRP` ?
result: true (1)

query: What do you have for `RRIRMRPPRLPRPRPRPNLPPRP` ?
result: false (0)

query: Now try `RRIRKRPPRLPRPRPRPYGWPRP` .
result: true (1)

query: Another sequence to check: `RRIRERPPRLPRPRPRPEDNPRP`
result: true (1)

query: Queued: `RRIRSRPPRLPRPRPRPYNFPRP`
result: false (0)

query: Query `RRIRFRPPRLPRPRPRPWGRPRP` next
result: true (1)

query: Can you handle `RRIRKRPPRLPRPRPRPGDTPRP` next?
result: true (1)

query: Request: `RRIRPRPPRLPRPRPRPKNVPRP`
result: false (0)

query: Proceed to `RRIRERPPRLPRPRPRPPYQPRP`
result: false (0)

query: Please do the same for `RRIRWRPPRLPRPRPRPAHGPRP` as well.
result: true (1)

query: Another sequence: `RRIRYRPPRLPRPRPRPSNNPRP`
result: false (0)

query: And what about the sequence `RRIRYRPPRLPRPRPRPCDIPRP` ?
result: false (0)

query: Again, but for `RRIRRRPPRLPRPRPRPGSPPRP`
result: true (1)

query: Proceed to `RRIRERPPRLPRPRPRPMWMPRP`
result: false (0)

query: Similarly, `RRIRCRPPRLPRPRPRPKTEPRP` ?
result: false (0)

query: And then `RRIRFRPPRLPRPRPRPCWSPRP` , what is it?
result: false (0)

query: Can you handle `RRIRMRPPRLPRPRPRPNCSPRP` next?
result: true (1)

query: Next sequence: `RRIRCRPPRLPRPRPRPFQSPRP`
result: false (0)

query: Now try `RRIRMRPPRLPRPRPRPMGTPRP` .
result: true (1)

query: Same thing, different sequence: `RRIRCRPPRLPRPRPRPPQMPRP`
result: true (1)

query: Another: `RRIRVRPPRLPRPRPRPAEMPRP`
result: true (1)

query: Same question, `RRIRIRPPRLPRPRPRPHAKPRP` this time
result: false (0)

query: Consider next the sequence `RRIRRRPPRLPRPRPRPCEQPRP` in the same way.
result: false (0)

query: Subsequent entry: `RRIRHRPPRLPRPRPRPHELPRP`
result: false (0)

query: Now the same for `RRIRHRPPRLPRPRPRPGAFPRP`
result: true (1)
